Each entry below lists one item and its recorded protein stability index value.
Test system: Saccharomyces cerevisiae
Assay: protein stability index of tFT-peptide fusion (C-terminal peptide) (PSI (0-1 scale)); higher = more stable (slower turnover)
Details: genetic background: wild type; temperature: 30 C
Could you respond with only the numeric value?

VSGDRFKRHESV
0.695
SPPPPTPLPPPP
0.676
WPCGGLRFSLPY
0.674
CPPPTPPAPPLP
0.74

Q: # get_value(readout='protein stability index', item= ACSPGHCTTGTS )
A: 0.649

Q: # get_value(readout='protein stability index', item= GYCLGVGLRLLH )
A: 0.562

Q: # get_value(readout='protein stability index', item= RNKHREEIERQT )
A: 0.672

Q: # get_value(readout='protein stability index', item= LLFPSPPLPPPL )
A: 0.784

Q: # get_value(readout='protein stability index', item= CGGGGGLWLLEV )
A: 0.559

Q: # get_value(readout='protein stability index', item= GLVWLGFWCYPL )
A: 0.556

Q: # get_value(readout='protein stability index', item= TIYGYEVTRKIG )
A: 0.155

Q: # get_value(readout='protein stability index', item= PAPPLPPLPLLP )
A: 0.684

Q: # get_value(readout='protein stability index', item= KTCGVGLDRMIG )
A: 0.714

Q: # get_value(readout='protein stability index', item= SVAGGGSACRGC )
A: 0.646

Q: # get_value(readout='protein stability index', item= GGNTQTNYHGCL )
A: 0.732

Q: # get_value(readout='protein stability index', item= KGREKTKKKGTK )
A: 0.688

Q: # get_value(readout='protein stability index', item= GPKGLLKATSLS )
A: 0.659

Q: # get_value(readout='protein stability index', item= GGFASGLCGGVI )
A: 0.728

Q: # get_value(readout='protein stability index', item= VLLLRRPLLVFS )
A: 0.244

Q: # get_value(readout='protein stability index', item= LSDGATDIGCLL )
A: 0.741

Q: # get_value(readout='protein stability index', item= GKQKKKHRRNLK )
A: 0.743

Q: # get_value(readout='protein stability index', item= PTKKRQHSDRRK )
A: 0.644

###

Each entry below lists one item and its recorded protein stability index value.
Test system: Saccharomyces cerevisiae;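 note: PSI is a weighted mean of sequencing reads over stability bins, variants kept only with over 10 reads, mCherry proximal and sfGFP distal, peptide attached via GGGS linker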
Experiment: protein stability index of tFT-peptide fusion (C-terminal peptide) (PSI (0-1 scale)); higher = more stable (slower turnover)
Conditions: genetic background: wild type; temperature: 30 C
Could you respond with only the numeric value?

These recorded examples may help you get a feel for the data.
EGMENECDLRIK
0.74
AFICGWSVGFGW
0.697
GGGGRGTAVVGV
0.66
VGEGSGEWKFLD
0.809
PPHLPPPRPKPP
0.592
VLGRLRVGRDRV
0.752

Q: Query protein stability index on Saccharomyces cerevisiae for KVWQISEVGAGY
A: 0.617

Q: Query protein stability index on Saccharomyces cerevisiae for IKKSRSLRIGMN
A: 0.584

Q: Query protein stability index on Saccharomyces cerevisiae for VQLHIDVRSFLF
A: 0.67

Q: Query protein stability index on Saccharomyces cerevisiae for RARPPPQLHLSP
A: 0.745

Q: Query protein stability index on Saccharomyces cerevisiae for VLCMSIFIVFGI
A: 0.371

Q: Query protein stability index on Saccharomyces cerevisiae for YARLAWDFRRSP
A: 0.737

Q: Query protein stability index on Saccharomyces cerevisiae for WADLIPDSFGDM
A: 0.741

Q: Query protein stability index on Saccharomyces cerevisiae for PGDPRARPRLCP
A: 0.71

Q: Query protein stability index on Saccharomyces cerevisiae for PSRLSFALLFHL
A: 0.49

Provenance of the data: the supplement of paper PMC10724198
